Biological target: human glucagon receptor (human) (UniProt P47871)
Sequence (P47871 26-477): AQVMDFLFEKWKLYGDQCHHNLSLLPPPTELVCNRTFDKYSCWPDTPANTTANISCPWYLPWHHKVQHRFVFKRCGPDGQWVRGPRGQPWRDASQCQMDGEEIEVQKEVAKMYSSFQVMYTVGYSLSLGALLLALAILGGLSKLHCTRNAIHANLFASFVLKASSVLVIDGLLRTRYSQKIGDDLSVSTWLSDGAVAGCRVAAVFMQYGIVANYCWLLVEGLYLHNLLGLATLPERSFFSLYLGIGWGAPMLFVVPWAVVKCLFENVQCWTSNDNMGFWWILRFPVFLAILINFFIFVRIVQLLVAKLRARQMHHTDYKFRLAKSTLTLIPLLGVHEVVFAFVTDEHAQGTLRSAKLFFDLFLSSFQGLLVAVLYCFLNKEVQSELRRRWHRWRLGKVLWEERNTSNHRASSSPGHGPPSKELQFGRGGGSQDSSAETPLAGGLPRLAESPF
Assay: cell-based or functional assay
Starred links: 1 amine or outer side, 2 acyl side, 3 side chain; linkers in the order of their positions; H or OH if unused. Non-standard residues stand in square brackets, D forms with d. Groups on a side chain read outwards from the residue. No end group written: not given here. *: point of attachment. C20 diacid = O=C(O)CCCCCCCCCCCCCCCCCCC(=O)*; γGlu = O=C(O)[C@H](CCC(=O)[*:2])N[*:1]; αMeL = CC(C)C[C@](C)(N)C(=O)O; AEEA = NCCOCCOCC(=O)O; Aib = CC(C)(N)C(=O)O
parameter_measured: Relative cAMP EC50
Number first, unit second: that is the form wanted.

Recorded Relative cAMP EC50, per entry:
YXQGTXTSDYSSLLDKKAQXAFIEYLEEGGPSSGAPPPS (synthetic construct; SITE 2: note = 2-Aminoisobutyric Acid; SITE 6: note = alpha-methyl-2-fluoro-L-phenylalanine; SITE 17: note = Lysine is chemically modified through conjugation of the epsilon-amino group of the Lysine side chain with (2-[2-(2-Amino-ethoxy)-ethoxy]-acetyl)-(gamma-Glu)-CO-(CH2) 16-) [Example 409] = 7.92 nM
YXQGTFTSDFSXXLDKKAQXQFIEYLLAGGPSSGAPPPEGS (synthetic construct; SITE 2: note = 2-Aminoisobutyric Acid; SITE 12: note = L-ornithine; SITE 13: note = alpha-methyl-leucine; SITE 17: note = Lysine is chemically modified through conjugation of the epsilon-amino group of the Lysine side chain with (2-[2-(2-Amino-ethoxy)-ethoxy]-acetyl)-(gamma-Glu)) [Example 96] = 14.1 nM
Y[Aib]QGTFTSDYSI[αMeL]LDKQAAK([AEEA-AEEA-γGlu-C20 diacid])QFIEWLIEGGPSSGEPPPGEG-NH2 [Example 318] = 5.03 nM
YXQGTFTSDXSQXLDXKAQXAFIEXLIAXGPSSGEPPPSGSEE (non-natural residues (Aib, 4Pal, Orn, Me4Pal, αMeY); lipidated K; amide; synthetic construct; SITE 2: note = 2-Aminoisobutyric Acid; SITE 10: note = 3-(4-Pyridyl)-L-alanine; SITE 13: note = alpha-methyl-leucine; SITE 16: note = L-ornithine; SITE 17: note = Lysine is chemically modified through conjugation of the epsilon-amino group of the Lysine side chain with (gamma-Gl)) [Example 1094] = 5.84 nM
YXQGTFTSDFSQXLDKKAQXAFIEYLIAGGPSSGAPPPSGS (synthetic construct; SITE 2: note = 2-Aminoisobutyric Acid; SITE 13: note = alpha-methyl-leucine; SITE 17: note = Lysine is chemically modified through conjugation of the epsilon-amino group of the Lysine side chain with (2-[2-(2-Amino-ethoxy)-ethoxy]-acetyl)-(gamma-Glu)-CO-(CH2) 16-CO2H; SITE 20: n) [Example 875] = 3.65 nM

Then this binder:
According to the records, this binder YXQGTFTSDFSXXLDKKAQXAFIEYLLEAGPSSXAPPPSGT (Lys acylated with AEEA-γGlu-C18 diacid; non-natural residues; C-amide; synthetic construct; SITE 2: note = 2-Aminoisobutyric Acid; SITE 12: note = L-ornithine; SITE 13: note = alpha-methyl-leucine; SITE 17: note = Lysine is chemically modified through conjugation of the epsilon-amino group of the Lysine side chain with (2-[2-(2-Amino-ethoxy)-ethoxy]-acetyl)-(gamma-Glu)) [Example 214] displays Relative cAMP EC50 of 2.49 nM
